- TARGET OR SYSTEM: Glucagon-like peptide 1 receptor (Homo sapiens)
- ASSAY SUMMARY: qHTS of GLP-1 Receptor Inverse Agonists (Inhibition Mode); note: nearly all actives have a fitted effect of over 55% in size
- CONDITION DESCRIPTION: HEK293 GLP-1R CRE-luciferase, luminescence, 24 h, GLP-1R form is constitutively active; series mostly up to 38.3 µM
About 6,400 (1.6%) of roughly 410,000 compounds were called active. Not shown: some 20% with an inconclusive outcome. Calls come from the whole dose curve; as a rule, active = well fitted inhibition curve with a large enough effect; inconclusive = small, poorly fitted or top-dose-only effect; inactive = no such curve, though single readings can be large or run the other way. The sample as a whole holds a higher share of actives than the screen did.
Outcomes: 1 for active, 0 for inactive

>  <COMPOUND>
COc1cccc(-c2nc(CS(=O)(=O)CC(=O)N3CCN(c4cc(C)ccc4C)CC3)c(C)o2)c1

>  <GROUP>
1

$$$$
>  <COMPOUND>
COc1ccc(CNCCCO)cc1OC

>  <GROUP>
0

$$$$
>  <COMPOUND>
CCCCN(CC)CCCNC(=O)CS(=O)(=O)Cc1nc(-c2cccc(OC)c2)oc1C

>  <GROUP>
0

$$$$
>  <COMPOUND>
Cc1cccc(NS(=O)(=O)c2ccc(C)c(C(=O)NCC(c3ccccc3)N(C)C)c2)c1 (configuration not stated)

>  <GROUP>
1

$$$$
>  <COMPOUND>
CCOCCCNCc1cc(Br)ccc1OCC

>  <GROUP>
0

$$$$
>  <COMPOUND>
CCOC1=C2CN(S(=O)(=O)c3ccc(C)cc3)[C@H](c3cccs3)C[C@H]2[C@H]2C(=O)N(c3ccccc3)C(=O)[C@H]2C1

>  <GROUP>
0

$$$$
>  <COMPOUND>
C[C@H](CO)N1C[C@H](C)[C@@H](CN(C)S(=O)(=O)c2ccc(Oc3ccccc3)cc2)OCc2cn(nn2)CCCC1=O

>  <GROUP>
0

$$$$
